Parameter 'readout' = IC50; parameter 'system' = BTK wildtype protein (Homo sapiens (Human), UniProt Q06187).
Sequence (Q06187 2-659): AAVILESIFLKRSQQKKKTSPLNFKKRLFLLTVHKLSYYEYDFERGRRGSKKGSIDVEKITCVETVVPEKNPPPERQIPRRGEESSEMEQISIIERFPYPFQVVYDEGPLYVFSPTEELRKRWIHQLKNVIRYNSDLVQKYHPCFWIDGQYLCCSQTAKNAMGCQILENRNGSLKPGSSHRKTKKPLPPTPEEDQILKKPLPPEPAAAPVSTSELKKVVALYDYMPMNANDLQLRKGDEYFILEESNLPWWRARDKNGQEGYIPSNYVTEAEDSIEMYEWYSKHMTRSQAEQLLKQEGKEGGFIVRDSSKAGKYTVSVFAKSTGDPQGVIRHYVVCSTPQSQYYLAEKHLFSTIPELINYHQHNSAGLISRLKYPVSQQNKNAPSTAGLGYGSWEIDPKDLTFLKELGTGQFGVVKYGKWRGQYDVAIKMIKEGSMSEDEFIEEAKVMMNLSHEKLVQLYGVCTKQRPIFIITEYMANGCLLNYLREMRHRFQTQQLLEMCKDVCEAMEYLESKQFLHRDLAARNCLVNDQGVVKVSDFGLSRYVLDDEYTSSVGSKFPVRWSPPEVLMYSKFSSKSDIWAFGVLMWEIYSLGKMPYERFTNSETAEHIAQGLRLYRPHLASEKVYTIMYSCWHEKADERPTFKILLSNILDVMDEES
REPORTED ENDPOINT: IC50

1. CN(C(=O)n1cncn1)C1CCC2C(CNc3c(C(N)=O)c(-c4ccc(Oc5ccccc5)cc4)nn32)C1 (stereo not shown) [Compound 199]	≤ 1000 nM
2. COc1ccc(C)cc1C(=O)NCc1ccc(-c2nn(C3CCC(N(C)C(=O)n4cncn4)CC3)c3ncnc(N)c23)cc1 (stereo not shown)	≤ 1000 nM
3. COc1ccc(F)cc1C(=O)NCc1ccc(-c2nn(C(CCN(C)C(=O)n3cncn3)Cc3ccccc3)c3ncnc(N)c23)cc1 (stereo not shown)	> 1000 nM
4. COc1nn(C)cc1Nc1nc(N2CCC3(CCN3C(=O)n3cncn3)C2)nc2c1ncn2C (stereo not shown)	> 1000 nM
5. CN(C(=O)n1cncn1)C1CCCC(C2CCNc3c(C(N)=O)c(-c4ccc(Oc5ccccc5)cc4)nn32)C1 (stereo not shown)	≤ 1000 nM
6. COC[C@H](C1CCNc2c(C(N)=O)c(-c3ccc(Oc4ccccc4)cc3)nn21)N(C)C(=O)n1cncn1 (stereo partly shown)	> 1000 nM
7. COc1ccc(F)cc1C(=O)NCc1ccc(-c2nn(C[C@@H]3C[C@H](O)CN3C(=O)n3cncn3)c3ncnc(N)c23)cc1	≤ 1000 nM
8. CCN(CC1CCNc2c(C(N)=O)c(-c3ccc(Oc4ccccc4)cc3)nn21)C(=O)n1cncn1 (stereo not shown)	> 1000 nM
9. Cc1[nH]c2c(C(N)=O)cc(F)c(N3CCCC4(CCN4C(=O)n4cncn4)C3)c2c1C (stereo not shown)	≤ 1000 nM
10. NC(=O)c1nn2c(c1-c1ccc(Oc3ccccc3)cc1)NCCC2C1CCCCN1C(=O)n1cncn1 (stereo not shown)	> 1000 nM
11. COc1ccc(F)cc1C(=O)NCc1ccc(-c2nn(C(C)C3CCN(C(=O)n4cncn4)C3)c3ncnc(N)c23)cc1 (stereo not shown)	≤ 1000 nM
12. NC(=O)c1c(-c2ccc(Oc3ccccc3)cc2)nn(C2CCCC3C2CCN3C(=O)n2cncn2)c1N (stereo not shown)	≤ 1000 nM
13. COc1ccc(F)cc1C(=O)NCc1ccc(-c2nn(-c3cccc(CN(C)C(=O)n4cncn4)c3)c3ncnc(N)c23)cc1	≤ 1000 nM
14. COc1ccc(F)cc1C(=O)NCc1ccc(-c2nn(C(CC3CC3)CN(C)C(=O)n3cncn3)c3ncnc(N)c23)cc1 (stereo not shown)	> 1000 nM
15. COc1ccc(F)cc1C(=O)NCc1ccc(-c2nn(Cc3ccccc3N(C)C(=O)n3cncn3)c3ncnc(N)c23)cc1	≤ 1000 nM
16. COc1ccc(F)cc1C(=O)NCc1ccc(-c2nn(CC(N(C)C(=O)n3cncn3)C(F)(F)F)c(N)c2C(N)=O)cc1 (stereo not shown)	≤ 1000 nM
17. COc1ccc(F)cc1C(=O)NCc1ccc(-c2nn(C(C)CC3CCCCN3C(=O)n3cncn3)c3ncnc(N)c23)cc1 (stereo not shown)	> 1000 nM
18. COc1ccc(F)cc1C(=O)NCc1ccc(-c2nn(CC3CN(C(=O)n4cncn4)C3)c(N)c2C(N)=O)cc1	≤ 1000 nM
19. Cc1[nH]c2c(C(N)=O)cc(F)c(N3CCC(N(C)C(=O)n4cncn4)C3)c2c1C (stereo not shown)	≤ 1000 nM
20. COc1ccc(F)cc1C(=O)NCc1ccc(-c2nn(C3CCC(N(C)C(=O)n4cncn4)C3)c(N)c2C(N)=O)cc1 (stereo not shown)	≤ 1000 nM
21. CN(C(=O)n1cncn1)C1CCCCC1n1nc(-c2ccc(Oc3ccccc3)cc2)c2c(N)ncnc21 (stereo not shown)	≤ 1000 nM
22. COc1ccc(F)cc1C(=O)NCc1ccc(-c2nn(C(Cc3ccncc3)CN(C)C(=O)n3cncn3)c3ncnc(N)c23)cc1 (stereo not shown)	> 1000 nM
23. COc1ccc(F)cc1C(=O)NCc1ccc(-c2nn(C3CCCN(C(=O)n4cncn4)C3)c(N)c2C(N)=O)cc1 (stereo not shown)	≤ 1000 nM
24. COc1ccc(F)cc1C(=O)NCc1ccc(-c2nn(C3CCC(CN(C)C(=O)n4cncn4)C3)c3ncnc(N)c23)cc1 (stereo not shown)	≤ 1000 nM
25. NC(=O)c1c(-c2ccc(Oc3ccccc3)cc2)nn(C2CCCN(C(=O)n3cncn3)C2)c1N (stereo not shown)	≤ 1000 nM
26. CCC(CN(C)C(=O)n1cncn1)n1nc(-c2ccc(CNC(=O)c3cc(F)ccc3OC)cc2)c2c(N)ncnc21 (stereo not shown)	> 1000 nM
27. NC(=O)c1c(-c2ccc(Oc3ccccc3)cc2)nn2c1NCC1CN(C(=O)n3cncn3)CCC12 (stereo not shown)	≤ 1000 nM
28. COc1ccc(C)cc1C(=O)NCc1ccc(-c2nn(CC3CCCCN3C(=O)n3cncn3)c3ncnc(N)c23)cc1 (stereo not shown)	≤ 1000 nM
